- test_name: qHTS assay to identify small molecule antagonists of the constitutive androstane receptor (CAR) signaling pathway - cell viability counter screen (AID 1224837); further: nearly all actives have a fitted effect of over 45% in size; further: potency means the concentration at half of the fitted maximal effect
- conditions: HepG2-CYP2B6-hCAR viability, CellTiter-Fluor, 23 h, co-treated with 50 nM CITCO; series mostly up to 92.4 µM
Records with an inconclusive call do not appear. Activity calls are given as the source filed them. The call rests on the fitted dose curve; in most records, active means well fitted cell-killing curve with a large enough effect in the repeat runs; inconclusive means weak or mixed curves, or effect the other way; inactive means flat fitted curve, though single readings scatter.
measurement_name: Potency

>>> result("CCC(C(=O)OCCN(CC)CC)c1ccccc1 (stereo unspecified)")
"inactive"
>>> result("CCC(Cc1ccccc1)(C(=O)c1ccc(N2CCOCC2)cc1)N(C)C (stereo unspecified)")
"inactive"
>>> result("CCN(CC)CCNC(=O)c1ccc(NC(C)=O)cc1")
"inactive"
>>> result("Cc1ccc(Nc2nccc(N(C)c3ccc4c(C)n(C)nc4c3)n2)cc1S(N)(=O)=O")
"inactive"
>>> result("CCCOCCOCCO")
"inactive"

// moving on: another record for Potency
[Q] Name the recorded Potency for Cc1cc(S(=O)(=O)O)ccc1N=Nc1c(O)ccc2ccccc12 .
[A] 34.4 µM (active)

----------
- test_name: qHTS RealTime-Glo MT Cell Viability Assay in HepG2 cells - 40 hour (AID 1224870); further: nearly all actives have a fitted effect of over 50% in size
- conditions: RealTime-Glo luminescence; series mostly up to 76.8 µM
Results filed as inconclusive are left out. The source made the active and inactive calls. The call rests on the fitted dose curve; in most records, active means well fitted cell-killing curve with a large enough effect in the repeat runs; inconclusive means weak or mixed curves, or effect the other way; inactive means flat fitted curve, though single readings scatter.
measurement_name: outcome

Solved entries (count: 4):
>>> result("C=CCOC(=O)/C=C\\C(=O)OCC=C")
"inactive"
>>> result("CC(C)(O)c1ccccc1CC[C@@H](SCC1(CC(=O)O)CC1)c1cccc(/C=C/c2ccc3ccc(Cl)cc3n2)c1")
"inactive"
>>> result("CC(=O)OCC(=O)[C@@]12OC(C)(C)O[C@@H]1C[C@H]1[C@@H]3C[C@H](F)C4=CC(=O)C=C[C@]4(C)[C@@]3(F)[C@@H](O)C[C@@]12C")
"inactive"
>>> result("CC(C)(C)CC(C)(C)c1ccc(OCCO)cc1")
"inactive"

// moving on: another record for outcome
[Q] Name the recorded outcome for CC(C)=CC=O .
[A] inactive

----------
- test_name: qHTS RealTime-Glo MT Cell Viability Assay in HEK293 cells - 32 hour (AID 1224868); further: nearly all actives have a fitted effect of over 50% in size
- conditions: RealTime-Glo luminescence; series mostly up to 76.8 µM
Records with an inconclusive call do not appear. Active and inactive are the calls of the source. Calls come from the whole dose curve; as a rule, active = well fitted cell-killing curve with a large enough effect in the repeat runs; inconclusive = weak or mixed curves, or effect the other way; inactive = flat fitted curve, though single readings scatter.
Answer with one of the outcomes TRUE for active, FALSE for inactive

[Q] For this molecule, state the assay outcome: COc1ccc(C(=O)c2cccc(O)c2)c(OC)c1
[A] FALSE

[Q] For this molecule, state the assay outcome: CC1C2CC(CC2C2CCCC(O)C2)C1(C)C (configuration not stated)
[A] FALSE

[Q] For this molecule, state the assay outcome: CCc1c2c(nc3ccc(OC(=O)N4CCC(N5CCCCC5)CC4)cc13)-c1cc3c(c(=O)n1C2)COC(=O)[C@]3(O)CC
[A] TRUE

[Q] For this molecule, state the assay outcome: Nc1c(I)cc(I)c(C(=O)N(CCC(=O)O)c2ccccc2)c1I
[A] FALSE

[Q] For this molecule, state the assay outcome: C=C(C)C(=O)OCCOC(=O)CC(C)=O
[A] FALSE

[Q] For this molecule, state the assay outcome: CC(C)CCCCCOC(=O)CCCCC(=O)OCCCCCC(C)C
[A] FALSE

[Q] For this molecule, state the assay outcome: CN1CCCN=C1/C=C/c1cccs1
[A] FALSE

[Q] For this molecule, state the assay outcome: CCC1(C)CC(=O)NC1=O (configuration not stated)
[A] FALSE

[Q] For this molecule, state the assay outcome: CCCOC(=O)c1ccc(C(=O)OCCC)nc1
[A] FALSE

[Q] For this molecule, state the assay outcome: O=C(CCCN1CCN(c2ccc(F)cc2)CC1)NC1c2ccccc2CSc2ccccc21 (configuration not stated)
[A] TRUE

[Q] For this molecule, state the assay outcome: O=C(c1ccc(O)cc1)c1ccc(Cl)cc1
[A] TRUE

[Q] For this molecule, state the assay outcome: CN(C)CCOC1=Cc2ccccc2Sc2ccc(Cl)cc21
[A] FALSE

[Q] For this molecule, state the assay outcome: COc1cc2c(N3CCN(C(=O)Nc4ccc(OC(C)C)cc4)CC3)ncnc2cc1OCCCN1CCCCC1
[A] TRUE

[Q] For this molecule, state the assay outcome: C=CC(C)(C)CC(=O)OC
[A] TRUE

[Q] For this molecule, state the assay outcome: CCC(C)(O)CCC=C(C)C (configuration not stated)
[A] FALSE

[Q] For this molecule, state the assay outcome: CCOC(=O)/C=C/C(=O)O
[A] FALSE

[Q] For this molecule, state the assay outcome: N#C/C(=C1/SC[C@@H](c2ccc(Cl)cc2Cl)S1)n1ccnc1
[A] FALSE

[Q] For this molecule, state the assay outcome: CCNC(=O)N1CCN(CCCC(c2ccc(F)cc2)c2ccc(F)cc2)CC1
[A] TRUE

[Q] For this molecule, state the assay outcome: Nc1ccc(S(=O)(=O)O)c(N)c1
[A] FALSE

[Q] For this molecule, state the assay outcome: O=S1OCCO1
[A] FALSE

[Q] For this molecule, state the assay outcome: CNC(=O)N(c1ccccc1)c1ccccc1
[A] FALSE

[Q] For this molecule, state the assay outcome: Nc1nccs1
[A] FALSE

[Q] For this molecule, state the assay outcome: NC(=O)Cn1c(=O)cc(CCN2CCN(c3nccc4sccc34)CC2)c2ccc(F)cc21
[A] TRUE

[Q] For this molecule, state the assay outcome: CC(C)C(=O)O
[A] FALSE

[Q] For this molecule, state the assay outcome: CCCOC(=O)c1ccc(N)cc1
[A] FALSE

[Q] For this molecule, state the assay outcome: Nc1nc(Cl)nc2c1ncn2[C@@H]1O[C@H](CO)[C@@H](O)[C@@H]1F
[A] TRUE

[Q] For this molecule, state the assay outcome: C/C=C/C=C/CCCCCCCO
[A] FALSE
